Exercise: for every item that follows, state its recorded TGI.
test system: COLO 205 colon; test: NCI tumour cell line growth inhibition, 48 h

Exam item: TGI for COc1cc(Nc2nc3cc(C(F)(F)F)ccc3nc2C(=O)O)cc(OC)c1OC ?
Marked response: > 100 µM

Exam item: TGI for c1ccc2c(c1)OCCOCCOc1ccccc1OCCO2 ?
Marked response: > 100 µM

Exam item: TGI for CC1=NC(C)(COC(=O)C2(C)NC(C)(CO)CO2)COC1=O (stereo not given) ?
Marked response: > 100 µM

Exam item: TGI for CC1CCC(C(C)(C)c2ccccc2)C(=O)C1 (stereo not given) ?
Marked response: > 100 µM

Exam item: TGI for C=C(C)[C@@H]1CC[C@]2(C)[C@H](CC[C@@H]3[C@@H]([C@@](C)(O)CCC=C(C)C)CC[C@]32C)[C@@]1(C)CCC(=O)O ?
Marked response: 35.6 µM
